meta.source: ChEMBL document CHEMBL1141586

- TARGET: C-X-C chemokine receptor type 3 (Homo sapiens, UniProt P49682)
- Sequence (P49682 whole entry): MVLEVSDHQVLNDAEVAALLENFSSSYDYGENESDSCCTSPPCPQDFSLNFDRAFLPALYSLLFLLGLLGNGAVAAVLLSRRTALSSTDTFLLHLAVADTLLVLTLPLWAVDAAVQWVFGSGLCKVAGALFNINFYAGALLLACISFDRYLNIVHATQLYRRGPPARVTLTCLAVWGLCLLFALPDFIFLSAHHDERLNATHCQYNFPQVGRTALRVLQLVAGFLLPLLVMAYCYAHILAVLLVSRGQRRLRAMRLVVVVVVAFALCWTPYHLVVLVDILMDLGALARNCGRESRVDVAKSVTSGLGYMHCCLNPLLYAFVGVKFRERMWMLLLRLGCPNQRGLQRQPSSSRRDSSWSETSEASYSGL
- ASSAY PROCEDURE: Displacement of [125I]IP10 from human recombinant CXCR3 receptor expressed in IL2-activated human PBMC
Reported values of pIC50 for individual entries
pIC50 (log units): -log10 of the concentration in mol/L.

These recorded examples may help you get a feel for the data.
                                     smiles  reported_metric  meas_value
0  CCOc1ccc(-n2cc(-c3ccccc3)nc2[C@@H](C)N(CCS(=O)(=O)CC)C(=O)Cn2nnc(C3CC3)n2)cc1            pIC50        7.36
1  CCOc1ccc(-n2cc(-c3ccccc3)nc2[C@@H](C)N(CCS(=O)(=O)CC)C(=O)Cc2ccc(F)c(C(F)(F)F)c2)cc1            pIC50        9.40
2  CCS(=O)(=O)CCN(C(=O)Cc1ccc(F)c(C(F)(F)F)c1)[C@H](C)c1nc(C2CC2)c(Cl)n1-c1ccc(C#N)cc1            pIC50        8.11
3  CCS(=O)(=O)CCN(C(=O)Cc1ccc(F)c(C(F)(F)F)c1)[C@H](C)c1nc(C2CC2)c(CO)n1-c1ccc(C#N)cc1            pIC50        8.00
4  CCOc1ccc(-n2cc(-c3ccccc3)nc2[C@@H](C)N(C[C@@H]2CCCN2)C(=O)Cc2ccc(F)c(C(F)(F)F)c2)cc1            pIC50        7.96

Query the reported pIC50 for C-X-C chemokine receptor type 3 (Homo sapiens, UniProt P49682); item: CCS(=O)(=O)CCN(C(=O)Cc1ccc(F)c(C(F)(F)F)c1)[C@H](C)c1nc(C2CC2)c(C(F)F)n1-c1ccc(C#N)cc1
7.92

Then what about the compound CCS(=O)(=O)CCN(C(=O)Cc1ccc(F)c(C(F)(F)F)c1)[C@H](C)c1nc(-c2cccnc2)cn1-c1ccc(C#N)cc1 ?
8.64

Entry to check: CCOCCN(C(=O)Cc1ccc(F)c(C(F)(F)F)c1)[C@H](C)c1nc(-c2ccccc2)cn1-c1ccc(OCC)cc1
7.96

How about CCOc1ccc(-n2cc(-c3ccccc3)nc2[C@@H](C)N(CCS(=O)(=O)CC)C(=O)Cn2nnc(-c3ccccc3)n2)cc1 ?
8.03

Next compound: CCOc1ccc(-n2cc(-c3ccccc3)nc2[C@@H](C)N(CCS(=O)(=O)CC)C(=O)Cn2nnc(-c3ccc(C(F)(F)F)cc3)n2)cc1
8.68
